The origin of these recorded values is patent US20220298254A1.

- System: T1, human CD47 (recombinant protein, construct not stated) (human, UniProt Q08722 19-141)
- T1 construct: also called hCD47; human CD47 protein
- Experiment Notes: ELISA on coated human CD47
# EC50 values compiled below
Lab book: enter the figure in µg/mL, no units written.

11A1H6-IgG1 (antibody, V domains shown, Humanised version of clone 1-1-A1, IgG1/kappa; also called 1A11H6) VH: QVQLVQSGAEVKKPGASVKVSCKASGYTFTNYVIHWVRQAPGQGLEWMGYINPYNDGTKYNQKFKGRVTLTSDTSTTTAYMELSRLRSDDTAVYYCASGGYYTMDYWGQGTLVASTK VL: DVVMTQSPLSLPVTLGQPASISCRSSQHLEYSQGYSYLHWYQQRPGQSPRLLIYKVSNRDSGVPDRFSGSGSGTDFTLKISRVEAEDVGVYYCSQSTHVPYTFGGGTKVEIKR = 13.4

Qu. What does the record list as EC50 for 11A1H5-IgG1 (antibody, V domains shown, Humanised version of clone 1-1-A1, IgG1/kappa; also called 1A11H5) VH: QVQLVQSGAEVKKPGASVKVSCKASGYTFTGYVIHWVRQAPGQGLEWMGYINPYNGGTNYAQKFKGRVTLTSDTSTTTAYMELSRLRSEDTAVYYCASGGYYTMDYWGQGTLVTVSS VL: DVVMTQSPLSLPVTLGQPASISCRSSQHLEYSNGYSYLHWYQQRPGQSPRLLIYKISNRFSGVPDRFSGSGSGTDFTLKISRVEAEDVGVYYCSQSTHVPYTFGGGTKVEIKR ?
Ans. 0.00015

Qu. Could you share which EC50 value was measured for 11A1H10-IgG1 (antibody, V domains shown, Humanised version of clone 1-1-A1, IgG1/kappa; also called 1A11H10) VH: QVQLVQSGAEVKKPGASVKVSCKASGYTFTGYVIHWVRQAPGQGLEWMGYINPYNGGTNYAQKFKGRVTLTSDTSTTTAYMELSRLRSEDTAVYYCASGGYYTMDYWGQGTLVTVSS VL: DVVMTQSPLSLPVTLGQPASISCRSSQHLEYSNGYSYLHWYQQRPGQSPRLLIYKVSNRDSGVPDRFSGSGSGTDFTLKISRVEAEDVGVYYCSQSTHVPYTFGGGTKVEIKR ?
Ans. 38.1
